Some binders, each annotated with its measured koff.
biological target: T1, hPDGFRb.mmh (human, UniProt P09619 33-531); experiment: SPR, mAb captured, 25 C
T1 construct: Soluble monomeric construct; also called soluble human PDGFR-beta.mmh
T1 sequence (P09619 other isoform, or with tags, fused parts or gaps): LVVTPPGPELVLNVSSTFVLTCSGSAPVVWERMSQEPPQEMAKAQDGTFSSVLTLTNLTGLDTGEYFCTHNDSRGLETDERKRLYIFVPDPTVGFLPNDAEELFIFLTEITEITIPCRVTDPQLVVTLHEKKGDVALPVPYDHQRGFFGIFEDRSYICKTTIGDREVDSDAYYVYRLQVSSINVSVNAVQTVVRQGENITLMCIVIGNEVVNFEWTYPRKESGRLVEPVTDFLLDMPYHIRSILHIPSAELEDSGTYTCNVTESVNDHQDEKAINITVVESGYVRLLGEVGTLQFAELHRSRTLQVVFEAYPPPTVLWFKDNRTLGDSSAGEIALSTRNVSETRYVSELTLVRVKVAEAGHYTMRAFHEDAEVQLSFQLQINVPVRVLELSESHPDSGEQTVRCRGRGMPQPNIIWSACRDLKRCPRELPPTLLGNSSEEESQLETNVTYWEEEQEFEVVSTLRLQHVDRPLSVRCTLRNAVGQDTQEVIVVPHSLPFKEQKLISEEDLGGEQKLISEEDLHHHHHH

binder	koff (s⁻¹)
H4H3094P (antibody, human IgG4, V domains shown, also called H4H3394P) VH: EVQLVESGGGLVQPGGSLRLSCAASGFTFSSYWMSWVRQAPGKGLEWVANMNQDGSETHYVDSVKGRLSISRDNAKKSLFLHMNSLRAEDTAVYFCARDLVPPRQDDYYYYFGMDVWGHGTTVTVSS VL: DIQMTQSPSTLSASVGDRVTITCRASQSISDWLAWYQQKPGKAPKLLIFKASTLESGVPSRFSGSGSGTEFTLTISSLQPDDFATYYCQQYNSYSRTFGQGTKVEIK	0.000257
H2M3373N (antibody, V domains shown, mouse Fc (H2M prefix; isotype not spelled out)) VH: EVQLRDSGGGLVQPGGSLRLSCVASGFTFSSYWMSWVRQAPGKGLEWVVNINRDGSEKYYVDSVKGRFIISRDNTKNSLYLQMESLRAEDTAVYYCARDPPYHLYGMDVWGQGTTVTVSS VL: DIQMTQSPSSLSASVGDRVTITCRTSQGIRVDLAWYQQKPGKAPERLIYAASSLQSGVPSRFSGGGSGTEFTLTVSSLQPEDFATYYCLQHHNFPYTFGQGTKLEIK	0.00235
